Origin of measurements: PubChem BioAssay (NCATS)

- Assay target: Cytochrome P450 2D6 (Homo sapiens)
- Protocol summary: Cytochrome P450 family 2 subfamily D member 6 (CYP2D6) small molecule antagonists: luciferase biochemical (cell-free) qHTS assay (AID 1645840); note: nearly all actives have a fitted effect of over 55% in size; note: potency is the fitted concentration of half-maximal effect
- Protocol conditions: P450-Glo CYP2D6 enzyme, luciferin luminescence, 1 h; series mostly up to 57.4 µM
Results filed as inconclusive are left out. Calls of active or inactive are those of the source. Calls come from the whole dose curve; as a rule, active = well fitted inhibition curve with a large enough effect in the repeat runs; inconclusive = weak or mixed curves; inactive = flat fitted curve, though single readings scatter.
Property label: Potency

Answered examples (5):
Entry COc1cc2c(cc1OC)-c1cc(=Nc3c(C)cc(C)cc3C)n(C)c(=O)n1CC2 ; Potency = 12.3 µM (active)

// Potency value for CN1CCN(C2=Nc3ccccc3Oc3ccc(Cl)cc32)CC1 : 3.89 µM (active)

The recorded Potency for entry CCN1CCc2nc(N)oc2CC1 equals inactive

compound NC/C=C/C(=O)O , Potency observed: inactive

GET /value?item= NC(N)=N/N=C/c1c(Cl)cccc1Cl &field=Potency returns 9.77 µM (active)

Now consider a different compound.
According to the records, this compound CN(C)CCCN1c2ccccc2Sc2ccc(C(F)(F)F)cc21 displays Potency of 0.0977 µM (active)

====

- Tested on: CP268
- Protocol summary: qHTS profiling for inhibitors of Plasmodium falciparum proliferation (AID 504749); note: nearly all actives have a fitted effect of over 60% in size
- Protocol conditions: P. falciparum in erythrocytes, SYBR Green DNA, 72 h; series mostly up to 28.7 µM
- Experimental: NIH National Institute of Allergy and Infectious Diseases [NIAID] NIH Chemical Genomics Center [NCGC] […] Because mature erythrocytes lack DNA, only Plasmodium-derived DNA is detected. NCGC Assay Protocol Summary: The SYBR Green viability assay was adapted from a method described previously (Plouffe et al., 2008). […] The following morning, fluorescence intensity at 485(14) nm excitation and 535(25) nm emission wavelengths was measured on an EnVision (Perkin Elmer) plate reader. […]
Inconclusive results are not listed. The source made the active and inactive calls. Calls come from the whole dose curve; as a rule, active = well fitted inhibition curve with a large enough effect; inconclusive = small, poorly fitted or top-dose-only effect; inactive = flat fitted curve, though single readings scatter.
Property label: outcome

Recorded outcome (compound Brc1c(NC2=NCCN2)ccc2nccnc12 ): inactive

get_value(item= c1cnc(N2CCN(Cc3ccc4c(c3)OCO4)CC2)nc1 , readout=outcome) returns inactive

The compound COC(=O)[C@@H](N)Cc1ccc(O)c(O)c1 showed outcome equal to inactive

====

- Protocol summary: qHTS assay for small molecule agonists of the antioxidant response element (ARE) signaling pathway measured by Nrf2-dependant transcriptional activity - cell viability counter screen (AID 720653); note: % is set by controls: 0 for no effect and ±100 for the full control effect
- Protocol conditions: ARE-bla HepG2 viability, CellTiter-Glo ATP luminescence, 16 h; active compounds read low
Records with an inconclusive call do not appear.
Property label: max response (%)
Entry rule: numbers only, all in %.

max response recorded for this compound, C[C@]12C=CC(=O)C=C1CC[C@H]1[C@@H]3C[C@@H](O)[C@](O)(C(=O)CO)[C@@]3(C)C[C@H](O)[C@@]12F , is -0.0511

Given item C[C@]12CCC(=O)C=C1CC[C@@H]1[C@@H]2C(=O)C[C@@]2(C)[C@H]1CC[C@]2(O)C(=O)CO , the value recorded as its max response is -5.48

Form field max response, entry O=C(O)CCCCCCCC(=O)O : -8.37

The measured max response associated with COc1cc(Cc2cnc(N)nc2N)cc(OC)c1OC reads 0.934

Kindly note the recorded max response for CC(=O)[C@@]1(O)CC[C@H]2[C@@H]3CCC4=CC(=O)CC[C@]4(C)[C@H]3CC[C@@]21C , which is -7.45

Looking up Cc1ccc(S(=O)(=O)NC(=O)NN2CCCCCC2)cc1 , I see its max response listed as 1.34

====

- Protocol summary: qHTS assay to identify small molecule inhibitors of chordoma cells - UCH-2 (AID 1259356)
- Protocol conditions: UCH-2 chordoma viability, CellTiter-Glo ATP luminescence, 48 h; series mostly up to 46.1 µM
Records with an inconclusive call do not appear. Activity calls are given as the source filed them. Calls come from the whole dose curve; as a rule, active = well fitted cell-killing curve with a large enough effect; inconclusive = small, poorly fitted or top-dose-only effect; inactive = flat fitted curve, though single readings scatter.
Could you please pick one outcome from this set? YES for active, NO for inactive

## Task Would you mind telling me which call this test gave CCCCNc1ccc(C(=O)OCCN(C)C)cc1 ?
## Result NO

## Task Hi, do you know how CCn1nc(C(=O)O)c(=O)c2cc3c(cc21)OCO3 came out in this test?
## Result NO

## Task Would you mind telling me which call this test gave CC(=O)[C@]1(O)Cc2c(O)c3c(c(O)c2[C@@H](O[C@H]2C[C@H](N)[C@H](O)[C@H](C)O2)C1)C(=O)c1ccccc1C3=O ?
## Result YES

====

- Test system: CP250
- Protocol summary: qHTS profiling for inhibitors of Plasmodium falciparum proliferation (AID 504749); note: nearly all actives have a fitted effect of over 60% in size
- Protocol conditions: P. falciparum in erythrocytes, SYBR Green DNA, 72 h; series mostly up to 28.7 µM
Results filed as inconclusive are left out. Calls of active or inactive are those of the source. Calls come from the whole dose curve; as a rule, active = well fitted inhibition curve with a large enough effect; inconclusive = small, poorly fitted or top-dose-only effect; inactive = flat fitted curve, though single readings scatter.
The reply should name one outcome from active, inactive

## Task So what was the verdict on Cc1cc(C)c(/C=C2\C(=O)Nc3ccccc32)[nH]1 in this test?
## Result inactive

## Task Please state the recorded outcome for this compound: CCO/C([O-])=N/c1c[n+](N2CCOCC2)no1
## Result inactive

## Task Hi, sorry to bother you, what did the test record for C[N+](C)(C)CCOC(N)=O ?
## Result inactive

## Task Please let me know the test result on file for COC(=O)C1=C(C)NC(C)=C(C(=O)OC(C)(C)CN(C)CCC(c2ccccc2)c2ccccc2)C1c1cccc([N+](=O)[O-])c1 (configuration not stated) .
## Result active

## Task Fill in: this test's call for O=C1CC2(CCCC2)CC(=O)N1CCCCN1CCN(c2ncccn2)CC1 is ___
## Result inactive

## Task Could you kindly confirm the outcome this assay logged for NC/C=C/C(=O)O ?
## Result inactive

## Task What call does the record list for Brc1c(NC2=NCCN2)ccc2nccnc12 ?
## Result inactive

====

- Assay target: Thioredoxin reductase 1, cytoplasmic (Rattus norvegicus)
- Protocol summary: qHTS Assay for Inhibitors of Mammalian Selenoprotein Thioredoxin Reductase 1 (TrxR1) (AID 488773); note: nearly all actives have a fitted effect of over 40% in size
- Protocol conditions: purified TrxR1 enzyme activity; inhibition; series mostly up to 57.1 µM
- Source text: The selenoprotein thioredoxin reductase (TrxR; EC 1.8.1.9) is a FAD containing homodimeric pyridine nucleotide-disulfide oxidoreductase with many cellular roles. Together with NADPH and its prime substrate thioredoxin (Trx), the enzyme forms the core of the Trx system. […] This BioAssay is a validation of an NADPH fluorescence-based, dual-purpose qHTS rTrxR1 assay designed to find potential inhibitors and substrates of rTrxR1. […]
Records with an inconclusive call do not appear. Calls of active or inactive are those of the source. The call rests on the fitted dose curve; in most records, active means well fitted inhibition curve with a large enough effect; inconclusive means small, poorly fitted or top-dose-only effect; inactive means no such curve, though single readings can be large or run the other way.
Hello, when you answer, please use one of the following outcomes: yes (active), no (inactive)

## Task Which outcome was assigned to CCn1ccnc1CC1COc2ccccc2O1 (stereo not given) in this test?
## Result no

## Task Test call for this compound, please: CCNC(=O)N1CCN(CCCC(c2ccc(F)cc2)c2ccc(F)cc2)CC1
## Result no

## Task Hey, what did the test say about CC(C)[N+](C)(CCOC(=O)C1c2ccccc2Oc2ccccc21)C(C)C ?
## Result no

## Task Please state the recorded outcome for this compound: CN(C)CCCN1c2ccccc2Sc2ccc(C(F)(F)F)cc21
## Result no

## Task What did this assay record as the result for CN(C)CC[C@@H](c1ccc(Br)cc1)c1ccccn1 ?
## Result no

## Task What did this assay record as the result for CCCN(CCC)CCc1cccc2c1CC(=O)N2 ?
## Result no

## Task Test call, this compound: CO[C@@]1(NC(=O)CSCC#N)C(=O)N2C(C(=O)O)=C(CSc3nnnn3C)CS[C@@H]21
## Result yes

## Task Hey, what did the test say about CCN(CC)CCCN(c1ccccc1)C1Cc2ccccc2C1 ?
## Result no

## Task What was the test verdict on NC(N)=NC(=O)Cc1c(Cl)cccc1Cl ?
## Result no

## Task For this compound, state the assay outcome: CNCCC(Oc1ccccc1OC)c1ccccc1 (stereo not given)
## Result no

## Task What did the test return for OC(CCN1CCCCC1)(c1ccccc1)C1CCCCC1 (stereo not given) ?
## Result no

## Task Record lookup: outcome of this test for Cc1nc2c([nH]1)c(=O)n(C)c(=O)n2Cc1ccco1 ?
## Result no

## Task # fetch the recorded call for Fc1ccc(C(c2ccc(F)cc2)N2CCN(C/C=C/c3ccccc3)CC2)cc1 here
## Result no

## Task I would be grateful if you could indicate the recorded call for COc1cc2c(cc1OC)-c1cc(=Nc3c(C)cc(C)cc3C)n(C)c(=O)n1CC2 .
## Result no

## Task What is the recorded call for this compound in the test? NC(=O)N1c2ccccc2C=Cc2ccccc21
## Result no

## Task Recorded test call requested for CCN(CC)CCNC(=O)c1ccc(NC(C)=O)cc1
## Result no

## Task GET /call?item= CCN(CC)CCNC(=O)c1cc(S(C)(=O)=O)ccc1OC returns the recorded outcome of this test.
## Result no

## Task In this assay, the call recorded for c1cc(CN2CCCCC2)cc(OCCCNc2nc3ccccc3s2)c1 was what?
## Result no

## Task Check the results log: what was the call for N[C@@H](COP(=O)(O)O)C(=O)O ?
## Result no

## Task What did the test return for CN(C)CCN(Cc1cccs1)c1ccccn1 ?
## Result no

## Task // param item: CN1C[C@H](C(=O)N[C@]2(C)O[C@@]3(O)[C@@H]4CCCN4C(=O)[C@H](Cc4ccccc4)N3C2=O)C[C@@H]2c3cccc4[nH]cc(c34)C[C@H]21 ; yields the recorded call
## Result no

## Task What outcome does the record of this test show for CN1CCN(C2=Nc3ccccc3Oc3ccc(Cl)cc32)CC1 ?
## Result no

## Task Which result was noted for this compound in the test: O=C(O)CN(CCN(CC(=O)O)CC(=O)O)CCN(CC(=O)O)CC(=O)O
## Result no

## Task Just curious, what result did CC(C)NCC(O)c1cc(O)cc(O)c1 (stereo not given) get here?
## Result no

## Task Test call for this compound, please: COC(=O)C1=C(C)NC(C)=C(C(=O)OCCN(C)Cc2ccccc2)C1c1cccc([N+](=O)[O-])c1 (stereo not given)
## Result no
